B1: CPEB3 Ribozyme (parent)
chain: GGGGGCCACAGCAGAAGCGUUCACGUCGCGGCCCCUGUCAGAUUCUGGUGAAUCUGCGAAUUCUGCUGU

- Variants of: B1
- method: self-cleavage, relative activity (ratio to wild type); higher = more cleavage; co-transcriptional
Record rule met whenever self-cleavage is at 0.7 or higher; record rule not met when lower.

In [3]: df
Out[3]:
                               sequence_data  discrete_label
 0  GGGGGCCACAGCAGAAGCGUUCACGUCGCGGCCCCUGUCAAAUUCUGGUGAACCUGCGAAUUCUGCUGU [G41A U53C]    rule not met
 1  GGGCGCCACAGCAGAAGCGUUUACGUCGCGGCCCCUGUCAGAUUCUGGUGAAUCUGCGAAUUCUGCUGU [G4C C22U]    rule not met
 2  GGGGGCCACAGCAGAAGCGUUCACGUCGCGGCCCCUGUCAGAUUCUGGUGAAUCUGCAAAUACUGCUGU [G58A U62A]        rule met
 3  GGGGGCCACUGCAGAAGCGUUCACGUCGCGGCCCCUGUCAGAUUCUGGUGAAUCUGCGAAAUCUGCUGU [A10U U61A]        rule met
 4  GGGGGCCACAGCAGAAGCGUUCACGUCGCGGCGCCUGUCAGAUUCUGGUGAAUCUGCGUAUUCUGCUGU [C33G A59U]    rule not met
 5  GGGGGCCACAGCAGAAGCGUUCACGUCGCGGCCCCUGUCAGAUUCUGGAGAAUCUGCGAAUGCUGCUGU [U49A U62G]        rule met
 6  GGGGGCCACAGCAGAAGCGUUCACGUCGCGGCCCCUGUCAGAUUUUGGGGAAUCUGCGAAUUCUGCUGU [C45U U49G]        rule met
 7  GGGGGCCACAGCAGAAGCGGUCACGACGCGGCCCCUGUCAGAUUCUGGUGAAUCUGCGAAUUCUGCUGU [U20G U26A]    rule not met
 8  GGGGGCCACAGCAGAACCGUUCACGUCGCGGCCCCUGUCAGAUUCUGGUGAAUCUGCGAAAUCUGCUGU [G17C U61A]    rule not met
 9  GGGGGCCACGGCAGAAGCGUUCACGUCGCGGCCCCUGUCAGAUUCUGGUGAAUCGGCGAAUUCUGCUGU [A10G U55G]    rule not met
10  GGGGGCCACAGCAGAUGCGUUCACUUCGCGGCCCCUGUCAGAUUCUGGUGAAUCUGCGAAUUCUGCUGU [A16U G25U]    rule not met
11  GGGGGCCACAGCAGAAGCGUUCACGUCGCAGCCCCUGUCAGAUUCUGGUGAAUCUGCCAAUUCUGCUGU [G30A G58C]        rule met
12  GGGGGCCACAGCAGUAGCGUUCACAUCGCGGCCCCUGUCAGAUUCUGGUGAAUCUGCGAAUUCUGCUGU [A15U G25A]    rule not met
13  GGGGGCCACAGCAGAAGCGUUCACGUCGAGGCCCCUGUCAGAUUCUGGUGAAUCUUCGAAUUCUGCUGU [C29A G56U]    rule not met
14  GGGGGCCACAGCGGACGCGUUCACGUCGCGGCCCCUGUCAGAUUCUGGUGAAUCUGCGAAUUCUGCUGU [A13G A16C]    rule not met
15  GGGGGCCACAGCAGAAGCGUUCACGUCGCGGCCCCUGUUAGAUUCUGGUGAAUCUGCGAAUUCUGCUAU [C39U G68A]        rule met
16  GGGGGCCACAGCAGAAGCGUUCACGUCGCGGCCCCUGUCAGUUUCUGGUGAAUCCGCGAAUUCUGCUGU [A42U U55C]    rule not met
17  GGGGGCCACAACAGAAGCGUUCACGUCACGGCCCCUGUCAGAUUCUGGUGAAUCUGCGAAUUCUGCUGU [G11A G28A]    rule not met
18  GGGGGGCACAGCAGAAGCGUUCACGUCGCGGCCCCUUUCAGAUUCUGGUGAAUCUGCGAAUUCUGCUGU [C6G G37U]    rule not met
19  GGGGGCCACAGCAGAAGCGUUAACGUCGCGGCCCCUGUCAGAUUCUGGUAAAUCUGCGAAUUCUGCUGU [C22A G50A]    rule not met
20  GGGGUCCACAGCAGAAGCGUUCACGUCGCGGCCCCUGUCAGAUUCUGGUGAAUCUGCGAAUUCUCCUGU [G5U G65C]    rule not met
21  GGGGGCCAUAGGAGAAGCGUUCACGUCGCGGCCCCUGUCAGAUUCUGGUGAAUCUGCGAAUUCUGCUGU [C9U C12G]        rule met
22  GGGGGCCACAGCAGAAUCGUUCACGUCGCGGCCCCUGUCAGAUUCUGGUGAACCUGCGAAUUCUGCUGU [G17U U53C]    rule not met
23  GGGGGCCACAGCAGAAGCGUUCACGUCGCGGCCGCUGUCAGAUUCUGGUGAAUCUGAGAAUUCUGCUGU [C34G C57A]    rule not met
24  GGGGGCCACAGCAGAAGCGUCCACGUCGCGGCCCCUGUCAGAUUCUGGUGAAUCUGCGAAAUCUGCUGU [U21C U61A]    rule not met
25  GGGGGCCACAGCAGAAGCGUUCACGUCGCGGCCGCUGUCAGAUUCUGGUGAGUCUGCGAAUUCUGCUGU [C34G A52G]        rule met
26  GGGGGCCACAGCAGAAGUGUUCACGUCGCGGCCCCUGUCAGAUUGUGGUGAAUCUGCGAAUUCUGCUGU [C18U C45G]        rule met
27  GGGGGCCAAAGCAAAAGCGUUCACGUCGCGGCCCCUGUCAGAUUCUGGUGAAUCUGCGAAUUCUGCUGU [C9A G14A]        rule met
28  GGGGGCCACAGCAGAAGCGUUCACGUCGCGGCCCCUGUCAGAUUCUGGUGAAUCGGCGAAUGCUGCUGU [U55G U62G]    rule not met
29  GGGGGCCACAGCAGAAGCGUUCACGACGCGGCCCCUGUCAAAUUCUGGUGAAUCUGCGAAUUCUGCUGU [U26A G41A]    rule not met
30  GGGGGCCACAGCAGAAGCGUUCACGUCGUGGCCCCUGUCAGAUUCUGGUGAAUCUGCGACUUCUGCUGU [C29U A60C]    rule not met
31  GGCGGCCACAGCAGAAGCGUUCACGUCGCGGCCCCUGUCAGACUCUGGUGAAUCUGCGAAUUCUGCUGU [G3C U43C]    rule not met
32  GGGGGCCACAGCAGAAGCGUUCACGUCGCGGCCCCUGUCAGACUCUGGUGAAUCUGCGAAUUCUGCUCU [U43C G68C]        rule met
33  GGGGGCCACAGCAGAAGCGUGCACGUCGCGGCCCCUGUCAGAUUCUGGUGAAUCUACGAAUUCUGCUGU [U21G G56A]        rule met
34  GGGGGCCACAGCAGAAGCGUACACGUCGCGGCCCCUGUAAGAUUCUGGUGAAUCUGCGAAUUCUGCUGU [U21A C39A]        rule met
35  GGGGGCCACAGCAGAAGCGUUCACGUCGCGGCCCCUCUCAGAUUCUGGUGAAUCUGCGAAUUCUGCGGU [G37C U67G]    rule not met
36  GGGGGCCACAGCAGAAGCGUUCACGGCGCGGCCCCUGUCAGAUUUUGGUGAAUCUGCGAAUUCUGCUGU [U26G C45U]        rule met
37  GGGGGCCACAGCUGAAGCGUUCACGGCGCGGCCCCUGUCAGAUUCUGGUGAAUCUGCGAAUUCUGCUGU [A13U U26G]    rule not met
38  GGGGGCCACAGCAGAAGCGUUCACGUCGCGGCCCCUGUCAGACUCUGGUGAACCUGCGAAUUCUGCUGU [U43C U53C]        rule met
39  GGGGGCCACAGCAGAAGCGUUCACGUCGCGGCCCCUGUCAGAUUCUGGGGAAACUGCGAAUUCUGCUGU [U49G U53A]        rule met
40  GGGGGCCACAGCAGAAGCGUUCACGUAGCGGCCCCUAUCAGAUUCUGGUGAAUCUGCGAAUUCUGCUGU [C27A G37A]    rule not met
41  GGGGGCCACAGCAGAAGCGUUCACGUCGCGGCCCCUGUCAGAUUCUGGUGACUCUGCGAAUUCAGCUGU [A52C U64A]        rule met
42  GGGGGCCACAGCAGAAGCGUUUACGUCGCGGCCCCUGUCAGAUUCUGGAGAAUCUGCGAAUUCUGCUGU [C22U U49A]    rule not met
43  GGGGGUCACAGCAGAAGUGUUCACGUCGCGGCCCCUGUCAGAUUCUGGUGAAUCUGCGAAUUCUGCUGU [C6U C18U]        rule met
44  GGGGGCCACAGCAAAAGCGUUCACGUCGCGGCCCCUGUCAGAUUCUGGUGAAUCUGCGAACUCUGCUGU [G14A U61C]    rule not met
